Test: T. cruzi intracellular proliferation inhibitors, primary screen, cell-based, beta-gal Tulahuen parasites, NIH3T3 host, luminescence (AID 624255)
Settings: T. cruzi beta-gal in NIH3T3, GalScreen luminescence, 90 h; at 8.34 µM; stronger effect = higher value
Among all 77,000 compounds or so, about 4,600 (6%) were called active. Another 1% or so got no clear call; they are omitted. The list comes from a sample in which actives are over-represented; it also holds close analogues and randomly drawn compounds.
REPORTED_PROPERTY: inhibition (%)
Give the number; % is assumed, so skip it.

Q: For the compound O=C(Nc1ccccc1)N1CCCCN2[C@H](CO)[C@@H](c3ccc(-c4ccccc4F)cc3)[C@H]2C1 , what inhibition is on record?
A: 45.9

Q: # query: inhibition of entry Cc1cccc(-c2ccc([C@H]3[C@@H](CO)N4CCCCN(Cc5cncnc5)C[C@H]34)cc2)c1
A: 104

Q: Need inhibition, item OC[C@@H]1[C@H](c2ccc(C3=CCCC3)cc2)[C@H]2CN(Cc3ccncc3)CCCCN12
A: 75.8

Q: What value of measured inhibition is listed for OC[C@H]1[C@H](c2ccc(-c3cccc(F)c3)cc2)[C@@H]2CN(Cc3cncnc3)CCCCN12 ?
A: 107
